# Measured Target: human CCR8 (human, UniProt P51685 1-355)
# Measurement Description: cell-based or functional assay
We begin with a simple list: items and their reported extrapolated top plateau of hCCL1 curve with 5 µg/mL mAb, protocol #3.
Endpoint Name: extrapolated top plateau of hCCL1 curve with 5 µg/mL mAb, protocol #3

{"columns": ["Binder", "Endpoint Value"],
 "data": [
  ["anti-CCR8 mAb 1-13 (antibody, V domains shown, Murine hybridoma mAb) VH: EVQLVETGGGLVQPKGSLKLSCAASGFTFNTNAMNWVRQAPGKGLEWVARIRSKSNYYATYYADSVKDRFTISRDDSQSMLYLQMNNLKTEDTAMYYCVRGREMGNYYSMDYWGQGTSVTVSS VL: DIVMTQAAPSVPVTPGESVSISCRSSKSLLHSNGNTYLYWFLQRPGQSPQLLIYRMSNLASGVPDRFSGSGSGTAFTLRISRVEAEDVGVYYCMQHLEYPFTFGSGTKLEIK", "149 % of hCCL1 (100 nM)"],
  ["anti-CCR8 mAb 1-17 (antibody, V domains shown, Murine hybridoma mAb) VH: QVQLQQPGSELVRPGASVKLSCKASGYTFTSYWMHWVKQRPGQGLEWIGNIWPGSASTNYDEKFKNKATLTVDTSSSTAYMQLSSLTSEDSAVYYCIRGGKGAMDYWSQGTSVTVSS VL: DVVMTQIPLSLPVSLGDQASISCRSSQSLENSYGNTYLNWYLQKPGQSPQLLIYRVSNRFSGVLDRFSGSGSGTDFTLKISRVEAEDLGVYFCLQVTHVPPTFGAGTKLELK", "193000 % of hCCL1 (100 nM)"],
  ["anti-CCR8 mAb 1-23 (antibody, human IgG1, kappa, V domains shown, Humanized mAb, human IgG1 / kappa) VH: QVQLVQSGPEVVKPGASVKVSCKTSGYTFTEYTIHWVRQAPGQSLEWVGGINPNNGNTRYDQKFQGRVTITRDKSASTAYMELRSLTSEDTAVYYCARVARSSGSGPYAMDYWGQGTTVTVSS VL: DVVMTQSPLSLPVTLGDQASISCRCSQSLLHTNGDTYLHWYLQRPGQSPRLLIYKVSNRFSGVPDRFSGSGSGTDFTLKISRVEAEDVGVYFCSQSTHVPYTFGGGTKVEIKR", "569000 % of hCCL1 (100 nM)"],
  ["anti-CCR8 mAb 1-9 (antibody, V domains shown, Murine hybridoma mAb) VH: EVQLVESGGGLVQPKGSLKLSCAASGFTFNAYAMNWVRQAPGKGLEWLARIRSKSNNYATYYADSVKDRFTISRDDSQSMFYLQMNNLKSEDTAMYYCVRGREAYYRYDGGYYAMDYWGQGTSVTVSS VL: EIVMTQAALSAPVTPGESVSMSCRSSKSLLHSNGNTYLYWFLQRPGQSPQLLIYRMSNLASGVPDRFSGSGSGTAFTLRISRVEAEDVGVYYCMQHLEYPFTFGSGTKLEIK", "533000 % of hCCL1 (100 nM)"]
]}
